- Tested on: S. pneumoniae
- assay: Biological activity against bacterial strains: S. pneumoniae
- Type: cell-based, Streptococcus pneumoniae
- Parameters: unit not given here
- setup-conditions: strain ATCC700676, macrolide resistant strain
Biological Activity, S. pneumoniae ATCC700676* reference
# print the numeric value only

{"molecule": "CC[C@H]1OC(=O)C[C@@H](O)[C@H](C)[C@@H](O[C@@H]2O[C@H](C)[C@@H](O[C@H]3C[C@@](C)(O)[C@@H](O)[C@H](C)O3)[C@H](N(C)C)[C@H]2O)[C@@H](CC=O)C[C@@H](C)C(=O)/C=C/C(C)=C/[C@@H]1CO[C@@H]1O[C@H](C)[C@@H](O)[C@@H](OC)[C@H]1OC [Tyl, tylosin, reference compound]", "meas-value": 0.20}
{"molecule": "CCC1OC(=O)CC(O)C(C)C(OC2OC(C)C(O)C(N(C)C)C2O)C(CC=O)CC(C)C(=NOCC#Cc2cnc3ccccc3c2)C=CC(C)=CC1CO (single isomer, unassigned) [Compound D]", "meas-value": 0.049}
{"molecule": "CCC1OC(=O)CC(O)C(C)C(OC2OC(C)C(O)C(N(C)C)C2O)C(CCN2CC(C)CC(C)C2)CC(C)C(=NOCCOc2ccccc2)C=CC(C)=CC1CO (stereo not shown) [Compound V]", "meas-value": 0.78}

Data request: Please report Biological Activity, S. pneumoniae ATCC700676* for the following molecule: CCC1OC(=O)CC(O)C(C)C(OC2OC(C)C(O)C(N(C)C)C2O)C(CC=O)CC(C)C(=NOCC(=O)N2CCN(c3ccccc3)CC2)C=CC(C)=CC1CO (stereo not shown) [Compound C]
Data returned: 0.39

====

- System: S. aureus
- assay: Biological activity against bacterial strains: S. aureus
- Format: cell-based, Staphylococcus aureus
- Parameters: unit not given here
- setup-conditions: strain ATCC6538p
Hi! Just check whether Biological Activity, S. aureus ATCC6538p is below 0.1. Below gives met, equal or above gives not met.

{"compound": "CC[C@H]1OC(=O)C[C@@H](O)[C@H](C)[C@@H](O[C@@H]2O[C@H](C)[C@@H](O[C@H]3C[C@@](C)(O)[C@@H](O)[C@H](C)O3)[C@H](N(C)C)[C@H]2O)[C@@H](CC=O)C[C@@H](C)C(=O)/C=C/C(C)=C/[C@@H]1CO[C@@H]1O[C@H](C)[C@@H](O)[C@@H](OC)[C@H]1OC [Tyl, tylosin, reference compound]", "assigned-label": "not met"}

Data request: Would you kindly verify if Biological Activity, S. aureus ATCC6538p of CC[C@H]1OC(=O)C[C@@H](O)[C@H](C)[C@@H](OC2OC(C)C(O)C(N(C)C)C2O)[C@@H](CC=O)C[C@@H](C)C(=N/OCCOc2ccccc2)/C=C/C(C)=C/C1CO (some centres unmarked) is strictly less than 0.1?
Data returned: not met

Data request: Would you kindly verify if Biological Activity, S. aureus ATCC6538p of CCC1OC(=O)CC(O)C(C)C(OC2OC(C)C(O)C(N(C)C)C2O)C(CC=O)CC(C)C(=NOCCCCc2cnc3ccccc3c2)C=CC(C)=CC1CO (centres unmarked) is strictly less than 0.1?
Data returned: met

Data request: Would you kindly verify if Biological Activity, S. aureus ATCC6538p of CC[C@H]1OC(=O)C[C@@H](O)[C@H](C)[C@@H](OC2OC(C)C(O)C(N(C)C)C2O)[C@@H](CC=O)C[C@@H](C)C(=N\OCCOc2ccccc2)/C=C/C(C)=C/C1CO (some centres unmarked) is strictly less than 0.1?
Data returned: not met

Data request: Would you kindly verify if Biological Activity, S. aureus ATCC6538p of CCC1OC(=O)CC(O)C(C)C(OC2OC(C)C(O)C(N(C)C)C2O)C(CCN2CC(C)CC(C)C2)CC(C)C(=NOCc2ccc(F)cc2)C=CC(C)=CC1COC1OC(C)C(O)C(OC)C1OC (single isomer, unassigned) [Compound Q] is strictly less than 0.1?
Data returned: not met

Data request: Would you kindly verify if Biological Activity, S. aureus ATCC6538p of CCC1OC(=O)CC(O)C(C)C(OC2OC(C)C(O)C(N(C)C)C2O)C(CCN2CC(C)CC(C)C2)CC(C)C(=NOCCCCOc2ccc3ncccc3c2)C=CC(C)=CC1COC1OC(C)C(O)C(OC)C1OC (single isomer, unassigned) [Compound M] is strictly less than 0.1?
Data returned: not met
